Conditions: mouse, in vivo, sc, 50 mg/kg
e = 2'-O-(2-methoxyethyl) (MOE); d = 2'-deoxy (DNA)
Listing of recorded RBC by entry.
Please reply with the value in numeric form only.

A selection of reference data follows.
{"columns": ["substance", "RBC"],
 "data": [
  ["ISIS 445530: 5-8-5 or 6-8-6 MOE microwalk gapmer (Table 44) (antisense GCATTGGTGCACAGTTTC; sugars from the 5' end e5 d8 e5, backbone and methylation of C not given here)", 10.0],
  ["ISIS 445498: 5-8-5 or 6-8-6 MOE microwalk gapmer (Table 44) (antisense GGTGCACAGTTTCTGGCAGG; sugars from the 5' end e6 d8 e6, backbone and methylation of C not given here)", 9.4],
  ["ISIS 445513, (antisense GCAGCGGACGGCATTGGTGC; 6-8-6 MOE gapmer, further chemistry not given here)", 9.8]
]}

# next substance below
Item ISIS 445532: 5-8-5 or 6-8-6 MOE microwalk gapmer (Table 44) (antisense CGGCATTGGTGCACAGTT; sugars from the 5' end e5 d8 e5, backbone and methylation of C not given here) has what recorded RBC?
9.7

====

Test system: IL-1β, IL-6, IFN-γ, TNF-α, IL-8, MIP-1α, MCP-1, MIP-1β, RANTES
Experiment: Cytokine and chemokine assays in cynomolgus monkeys (Example 46)
Format: in vivo
Settings: day-14 (before start of treatment)
Strand notation (5' to 3'): a small letter for the sugar, then the base; units joined by * are phosphorothioate-linked, units joined directly phosphodiester-linked; [ ] holds rarer units or linkages, { } end groups; capitals alone tell only the bases. e = 2'-O-(2-methoxyethyl) (MOE); [5mC] = 5-methylcytosine; d = 2'-deoxy (DNA)
Listing of recorded IFN-γ level by entry.
Please respond with the number in pg/mL and leave the unit unwritten.

{"columns": ["substance", "unit abbreviation", "observed result"],
 "data": [
  ["ISIS 449711: 3-8-3, 4-8-4, 2-10-2, 3-10-3 or 4-10-4 MOE microwalk gapmer (Table 46) (antisense eA*e[5mC]*dA*dG*dT*dT*dT*d[5mC]*dT*dG*dG*d[5mC]*eA*eG)", "pg/mL", 29]
]}

# next substance below
Item ISIS 449710: 3-8-3, 4-8-4, 2-10-2, 3-10-3 or 4-10-4 MOE microwalk gapmer (Table 46) (antisense e[5mC]*eA*e[5mC]*dA*dG*dT*dT*dT*d[5mC]*dT*dG*dG*d[5mC]*eA*eG*eG) has what recorded IFN-γ level?
1115

====

System: Factor 11 protein
Test: Factor 11 protein in monkey plasma by sandwich ELISA (Example 46)
Type: in vivo, cynomolgus monkeys
Details: Day 10, plasma, 25 mg/kg subcutaneously
Strand notation (5' to 3'): a small letter for the sugar, then the base; units joined by * are phosphorothioate-linked, units joined directly phosphodiester-linked; [ ] holds rarer units or linkages, { } end groups; capitals alone tell only the bases. e = 2'-O-(2-methoxyethyl) (MOE); [5mC] = 5-methylcytosine; d = 2'-deoxy (DNA)
Returns: string. Value is met if measured Inhibition of Factor 11 protein relative to the PBS control (percentage reduction) is below 9%, and not met if it is greater than or equal to it.

Consider the worked cases shown below.
{"columns": ["substance", "class name"],
 "data": [
  ["416858 (antisense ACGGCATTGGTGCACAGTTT; 5-10-5 gapmer, further chemistry not given here) [compound 416858]", "not met"],
  ["449708 (antisense eA*e[5mC]*eA*dG*dT*dT*dT*d[5mC]*dT*dG*dG*e[5mC]*eA*eG) [compound 449708]", "met"],
  ["416850 (antisense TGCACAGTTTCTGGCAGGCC; 5-10-5 gapmer, further chemistry not given here) [compound 416850]", "not met"],
  ["449709 (antisense eG*e[5mC]*eA*e[5mC]*dA*dG*dT*dT*dT*d[5mC]*dT*dG*dG*d[5mC]*eA*eG*eG*e[5mC]) [compound 449709]", "not met"]
]}

Then this substance:
Is 9% strictly greater than the substance's reported Inhibition of Factor 11 protein relative to the PBS control (percentage reduction)? substance: 449711 (antisense eA*e[5mC]*dA*dG*dT*dT*dT*d[5mC]*dT*dG*dG*d[5mC]*eA*eG) [compound 449711]
met
